measured.quantity: log10 of intrinsic clearance, rat liver microsomes (log10 of the value in mL/min/kg)
Please keep in mind that the values are log10 of intrinsic clearance, rat liver microsomes expressed in mL/min/kg.

O=C(NCCN1CCC(n2c(=O)[nH]c3cc(Cl)ccc32)CC1)c1ccc(F)cc1 ... 2.57
Cc1ccccc1C(=O)N1CCC(O)(Cn2ccnc2C)CC1 ... 2.00
Cc1nnc(CN(C)CC(C)Oc2ccc(Cl)c(Cl)c2)n1C (configuration not stated) ... 3.16

So, `O=C(NCc1cccc(F)c1)c1[nH]nnc1-c1ccccc1` ? Its log10 of intrinsic clearance, rat liver microsomes was 1.24

So, `CC1(C)CC(=O)c2c(C(F)(F)F)nn(-c3ccc(C(N)=O)c(N[C@H]4CC[C@@H](O)CC4)c3)c2C1` ? Its log10 of intrinsic clearance, rat liver microsomes was 2.03

So, `CCOC(=O)N1CCc2cc(NC(=O)c3oc(C)cc3C)ccc21` ? Its log10 of intrinsic clearance, rat liver microsomes was 2.07

So, `COCc1nc(-c2cc(F)ccc2F)c(C)s1` ? Its log10 of intrinsic clearance, rat liver microsomes was 2.63
